Test system: Escherichia coli
ASSAY PROTOCOL: Antimicrobial activity against Escherichia coli ATCC 11775 incubated for 24 hrs followed by transfer of colonies to Muller-Hinton agar plate and measured after 18 hrs by two-fold serial broth dilution method
Format: functional
Each record here notes measured MBC.
Please respond with the number in µg/mL and leave the unit unwritten.

Completed entries (count: 3):
chemical_smiles=O=C(O)CCc1nnc2c(Cc3ccccc3)nc3ccccc3n12 result_number=25
chemical_smiles=O=C(O)c1ccccc1-c1nnc2c(Cc3ccccc3)nc3ccccc3n12 result_number=50
chemical_smiles=CCOC(=O)Cc1nnc2c(Cc3ccccc3)nc3ccccc3n12 result_number=100

Kindly consider the entry below.
Lookup: # returns recorded MBC (system: Escherichia coli) for `CCOC(=O)c1nnc2c(Cc3ccccc3)nc3ccccc3n12`
Found: 50

Data credit: ChEMBL document CHEMBL3621157
